All values here come from paper PMC6367750.

Tested on: K562, NOMO-1, HL60 and MOLT4
PROTOCOL_DESCRIPTION: Antiproliferative activity, non-FLT3-driven leukemia cell lines
Format: cell-based
RUN_CONDITIONS: 72 h, read-out: IC50 range over non-FLT3-driven leukemia cell lines
pIC50: −log10 of the molar value.
MEASURED_QUANTITY: pIC50

# input Tell me measured pIC50 for `FC(F)(F)c1n[nH]cc1-c1nc2ccc3[nH]ncc3c2c2c1CCCC2` please.
# output 5.73 to 6.21

---

SYSTEM_UNDER_TEST: FLT3-ITD (Homo sapiens, UniProt P36888, ITD)
Sequence (P36888 564-993, change not shown): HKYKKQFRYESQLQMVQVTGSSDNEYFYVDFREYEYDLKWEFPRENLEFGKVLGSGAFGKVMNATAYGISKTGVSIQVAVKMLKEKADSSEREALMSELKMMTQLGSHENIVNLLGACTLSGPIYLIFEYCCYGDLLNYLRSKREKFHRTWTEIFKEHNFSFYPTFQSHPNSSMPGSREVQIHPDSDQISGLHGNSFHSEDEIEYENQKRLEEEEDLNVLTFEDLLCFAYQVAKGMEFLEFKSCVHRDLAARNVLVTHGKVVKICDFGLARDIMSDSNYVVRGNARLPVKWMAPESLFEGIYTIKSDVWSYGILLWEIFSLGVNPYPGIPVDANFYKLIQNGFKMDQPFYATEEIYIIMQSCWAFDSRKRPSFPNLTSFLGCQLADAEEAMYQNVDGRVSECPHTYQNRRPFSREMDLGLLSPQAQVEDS
PROTOCOL_DESCRIPTION: FLT3-ITD kinase inhibition, ADP-Glo kinase assay
Assay type: biochemical
RUN_CONDITIONS: read-out: %FLT3 inhibition FLT3-ITD
Entries get a class label from measured inhibition at 0.1 µM. See ranges: A (below 20%), B (20% to below 50%), C (50% or more)

# input Please report the category associated with `OCCn1cc(-c2nc3ccc4[nH]ncc4c3c3c2CCCC3)cn1` , nothing else.
# output B

# input Please report the category associated with `c1cncc(-c2n[nH]cc2-c2nc3ccc4[nH]ncc4c3c3c2CCCC3)c1` , nothing else.
# output A

# input Please report the category associated with `c1cc(-c2n[nH]cc2-c2nc3ccc4[nH]ncc4c3c3c2CCCC3)cs1` , nothing else.
# output A

# input Please report the category associated with `FC(F)(F)c1cc(-c2nc3ccc4[nH]ncc4c3c3c2CCCC3)n[nH]1` , nothing else.
# output A

# input Please report the category associated with `Cc1n[nH]cc1-c1nc2ccc3[nH]ncc3c2c2c1CCCC2` , nothing else.
# output C

# input Please report the category associated with `FC(F)(F)c1n[nH]cc1-c1nc2ccc3[nH]ccc3c2c2c1CCCC2` , nothing else.
# output A

# input Please report the category associated with NC1CCc2c(c(-c3c[nH]nc3C(F)(F)F)nc3ccc4[nH]ncc4c23)C1 (stereo not shown) , nothing else.
# output C

# input Please report the category associated with `FC(F)(F)c1n[nH]cc1-c1nc2ccc3[nH]ncc3c2c2c1CCCC2` , nothing else.
# output C

# input Please report the category associated with `c1[nH]nnc1-c1nc2ccc3[nH]ncc3c2c2c1CCCC2` , nothing else.
# output C

# input Please report the category associated with `c1ccc(-c2n[nH]cc2-c2nc3ccc4[nH]ncc4c3c3c2CCCC3)cc1` , nothing else.
# output B

---

System: MV4–11
PROTOCOL_DESCRIPTION: Antiproliferative activity, CellTiter-Blue
Format: cell-based
RUN_CONDITIONS: Homo sapiens, MV4-11, 72 h, read-out: IC50 MV4–11, 72 h
MEASURED_QUANTITY: log10 of IC50 (log10 of the value in nM)
Annotation: log10 of IC50, nM basis.

# input Please report log10 of IC50 with MV4–11 for item `Cc1n[nH]cc1-c1nc2ccc3[nH]ncc3c2c2c1CCCC2` .
# output 1.79

# input Please report log10 of IC50 with MV4–11 for item `c1cncc(-c2n[nH]cc2-c2nc3ccc4[nH]ncc4c3c3c2CCCC3)c1` .
# output 3.11

# input Please report log10 of IC50 with MV4–11 for item NC1CCc2c(c(-c3c[nH]nc3C(F)(F)F)nc3ccc4[nH]ncc4c23)C1 (stereo not shown) .
# output 2.12

# input Please report log10 of IC50 with MV4–11 for item `OCCn1cc(-c2nc3ccc4[nH]ncc4c3c3c2CCCC3)cn1` .
# output 3.14

# input Please report log10 of IC50 with MV4–11 for item `c1ccc(-c2n[nH]cc2-c2nc3ccc4[nH]ncc4c3c3c2CCCC3)cc1` .
# output 3.16

# input Please report log10 of IC50 with MV4–11 for item `FC(F)(F)c1n[nH]cc1-c1nc2ccc3[nH]ccc3c2c2c1CCCC2` .
# output 2.95

# input Please report log10 of IC50 with MV4–11 for item `FC(F)(F)c1n[nH]cc1-c1nc2ccc3[nH]ncc3c2c2c1CCCC2` .
# output 0.70

# input Please report log10 of IC50 with MV4–11 for item `c1[nH]nnc1-c1nc2ccc3[nH]ncc3c2c2c1CCCC2` .
# output 2.19

# input Please report log10 of IC50 with MV4–11 for item `c1cc(-c2n[nH]cc2-c2nc3ccc4[nH]ncc4c3c3c2CCCC3)cs1` .
# output 2.89
